Molecular target: His6-SUMO-K-Ras WT (human, UniProt P01116-2 1-166)
Experiment: FACS; GDP-loaded
Measure: pKd
One number for each entry, as −log10 of the molar value.

Prompt: Quote pKd reported for R11.1.6 expressed on the surface of yeast (designed binder) ATVKFTHQGEEKQVDISKIKWVIRWGQYIWFKYDEDGGAKGWGYVSEKDAPKELLQMLKKR please.
Completion: 8.55
